Biological target: T1, human complement protein C5 (human, UniProt P01031 19-1676)
T1 construct: Native C5 is a two-chain protein made from one precursor; also called hC5; human C5
Assay: SPR (Biacore), pH 7.4
// pKd lookup, one value per entry
The scale used: pKd is minus the common logarithm of the concentration in molar units.

Solved entries (count: 3):
binder="CRL0500 (bispecific antibody, anti-albumin VHH / (G4S)3 / anti-C5 VHH fusion, purified by Protein A; also called CRL0500 (HSA/C5)) EVQLVESGGGLVKPGGSLRLSCAASGRPVSNYAAAWFRQAPGKEREFVSAINWQKTATYADSVKGRFTISRDNAKNSLYLQMNSLRAEDTAVYYCAAVFRVVAPKTQYDYDYWGQGTLVTVSSGGGGSGGGGSGGGGSEVQLVESGGGLVQPGGSLRLSCAASGRAHSDYAMAWFRQAPGQEREFVAGIGWSGGDTLYADSVRGRFTNSRDNSKNTLYLQMNSLRAEDTAVYYCAARQGQYIYSSMRSDSYDYWGQGTLVTVSS" endpoint_value=9.63
binder="CRL0483 (bispecific antibody, anti-C5 VHH / (G4S)3 / anti-albumin VHH fusion, purified by Protein A; also called CRL0483 (C5/HSA)) EVQLVESGGGLVQPGGSLRLSCAASGRTFSGILSPYAVGWFRQAPGKGLEFVSTITSGGSAIYTDSVKGRFTISRDNAKDSLYLQMNSLRAEDTAVYYCAVRTRRYGSNLGEVPQENEYGYWGQGTLVTVSSGGGGSGGGGSGGGGSEVQLLESGGGLVQPGGSLRLSCAASGFTFRSFGMSWVRQAPGKGPEWVSSISGSGSDTLYADSVKGRFTISRDNSKNTLYLQMNSLRPEDTAVYYCTIGGSLSRSSQGTLVTVSS" endpoint_value=8.97
binder="CRL0484 (bispecific antibody, anti-C5 VHH / (G4S)3 / anti-albumin VHH fusion, purified by Protein A; also called CRL0484 (C5/HSA)) EVQLVESGGGLVQPGGSLRLSCAASGRTFSGILSPYAVGWFRQAPGKGLEFVSTITSGGSAIYTDSVKGRFTISRDNAKDSLYLQMNSLRAEDTAVYYCAVRTRRYGSNLGEVPQENEYGYWGQGTLVTVSSGGGGSGGGGSGGGGSEVQLVESGGGLVKPGGSLRLSCAASGRPVSNYAAAWFRQAPGKEREFVSAINWQKTATYADSVKGRFTISRDNAKNSLYLQMNSLRAEDTAVYYCAAVFRVVAPKTQYDYDYWGQGTLVTVSS" endpoint_value=8.96

Continue with the binder presented below.
Problem: Tell me its pKd given CRL0499 (bispecific antibody, anti-albumin VHH / (G4S)3 / anti-C5 VHH fusion, purified by Protein A; also called CRL0499 (HSA/C5)) EVQLLESGGGLVQPGGSLRLSCAASGFTFRSFGMSWVRQAPGKGPEWVSSISGSGSDTLYADSVKGRFTISRDNSKNTLYLQMNSLRPEDTAVYYCTIGGSLSRSSQGTLVTVSSGGGGSGGGGSGGGGSEVQLVESGGGLVQPGGSLRLSCAASGRAHSDYAMAWFRQAPGQEREFVAGIGWSGGDTLYADSVRGRFTNSRDNSKNTLYLQMNSLRAEDTAVYYCAARQGQYIYSSMRSDSYDYWGQGTLVTVSS as the entry.
Solution: 9.82
